Measured values drawn from ChEMBL document CHEMBL1158470 for this set.

- test summary: Oral bioavailability in CD rat at 15 mg/kg
- Format: ADME, organism-based
- measurement parameters: in vivo
Provide the recorded bioavailability for the entries that follow.
Report as a plain number; the unit % is understood.

Consider the compound Cc1ccc(C(=O)Nc2cccc(C(C)(C)C)c2)cc1/C=C/n1cnc2c(NC3CC3)ncnc21 and give its measured bioavailability.
3.5

Consider the compound Cc1ccc(NC(=O)c2cccc(C(F)(F)F)c2)cc1/C=C/n1cnc2c(Nc3ccc(P(C)(C)=O)cc3)ncnc21 and give its measured bioavailability.
0.8

Consider the compound Cc1ccc(NC(=O)c2cccc(C(F)(F)F)c2)cc1/C=C/n1cnc2c(Nc3cccnc3)ncnc21 and give its measured bioavailability.
11

Consider the compound Cc1ccc(C(=O)Nc2cc(C(C)(C)C)on2)cc1/C=C/n1cnc2c(NC3CC3)ncnc21 and give its measured bioavailability.
45

Consider the compound Cc1ccc(NC(=O)c2cccc(C(F)(F)F)c2)cc1/C=C/n1cnc2c(NC3CC3)ncnc21 and give its measured bioavailability.
40

Consider the compound Cc1ccc(C(=O)Nc2cc(C(F)(F)F)ccn2)cc1/C=C/n1cnc2c(NC3CC3)ncnc21 and give its measured bioavailability.
116

Consider the compound Cc1cn(-c2cc(NC(=O)c3ccc(C)c(/C=C/n4cnc5c(NC6CC6)ncnc54)c3)cc(C(F)(F)F)c2)cn1 and give its measured bioavailability.
7

====

- test summary: Tmax in CD rat at 15 mg/kg, po
- Format: ADME, organism-based
- Parameters: dose 15 mg/kg, route oral
- measurement parameters: in vivo
recorded metric: Tmax (h)
Report as a plain number; the unit h is understood.

Consider the molecule Cc1ccc(C(=O)Nc2cc(C(F)(F)F)ccn2)cc1/C=C/n1cnc2c(NC3CC3)ncnc21 and give its measured Tmax.
2

Consider the molecule Cc1ccc(C(=O)Nc2cc(C(C)(C)C)on2)cc1/C=C/n1cnc2c(NC3CC3)ncnc21 and give its measured Tmax.
1

Consider the molecule Cc1cn(-c2cc(NC(=O)c3ccc(C)c(/C=C/n4cnc5c(NC6CC6)ncnc54)c3)cc(C(F)(F)F)c2)cn1 and give its measured Tmax.
2

Consider the molecule Cc1ccc(C(=O)Nc2cccc(C(C)(C)C)c2)cc1/C=C/n1cnc2c(NC3CC3)ncnc21 and give its measured Tmax.
1

Consider the molecule Cc1ccc(NC(=O)c2cccc(C(F)(F)F)c2)cc1/C=C/n1cnc2c(NC3CC3)ncnc21 and give its measured Tmax.
1

Consider the molecule Cc1ccc(NC(=O)c2cccc(C(F)(F)F)c2)cc1/C=C/n1cnc2c(Nc3ccncc3)ncnc21 and give its measured Tmax.
6

Consider the molecule Cc1ccc(NC(=O)c2cccc(C(F)(F)F)c2)cc1/C=C/n1cnc2c(Nc3cccnc3)ncnc21 and give its measured Tmax.
2

Consider the molecule Cc1ccc(NC(=O)c2cccc(C(F)(F)F)c2)cc1/C=C/n1cnc2c(Nc3ccc(P(C)(C)=O)cc3)ncnc21 and give its measured Tmax.
1

====

- test summary: Antiproliferative activity against mouse BA/F3 cells after 3 days by MTS assay
- measurement parameters: Mus musculus, BaF3, 72 h
recorded metric: IC50 (µM)
Report as a plain number; the unit µM is understood.

Consider the compound Cc1ccc(NC(=O)c2cccc(C(F)(F)F)c2)cc1/C=C/n1cnc2c(NC3CC3)ncnc21 and give its measured IC50.
7.86

Consider the compound Cc1ccc(C(=O)Nc2cc(C(F)(F)F)ccc2F)cc1/C=C/n1cnc2c(NC3CC3)ncnc21 and give its measured IC50.
7.67

Consider the compound Cc1ccc(C(=O)Nc2cccc(C(F)(F)F)c2)cc1/C=C/n1cnc2c(NC3CC3)ncnc21 and give its measured IC50.
4.35

Consider the compound Cc1ccc(NC(=O)c2cccc(C(F)(F)F)c2)cc1/C=C/n1cnc2c(Nc3ccncn3)ncnc21 and give its measured IC50.
2.07

Consider the compound Cc1ccc(C(=O)Nc2cc(-n3ccnc3)cc(C(F)(F)F)c2)cc1/C=C/n1cnc2c(NC3CC3)ncnc21 and give its measured IC50.
7.12

Consider the compound Cc1ccc(NC(=O)c2cccc(C(F)(F)F)c2)cc1/C=C/n1cnc2c(Nc3ccncc3)ncnc21 and give its measured IC50.
0.635

Consider the compound Cc1ccc(C(=O)Nc2cccc(C(C)(C)C)c2)cc1/C=C/n1cnc2c(NC3CC3)ncnc21 and give its measured IC50.
2.55

Consider the compound Cc1cn(-c2cc(NC(=O)c3ccc(C)c(/C=C/n4cnc5c(NC6CC6)ncnc54)c3)cc(C(F)(F)F)c2)cn1 and give its measured IC50.
6.46

Consider the compound Cc1ccc(C(=O)Nc2cc(C(C)(C)C)nn2C)cc1/C=C/n1cnc2c(NC3CC3)ncnc21 and give its measured IC50.
9.03

Consider the compound Cc1ccc(C(=O)Nc2ncc(C(C)(C)C)s2)cc1/C=C/n1cnc2c(NC3CC3)ncnc21 and give its measured IC50.
7.12

Consider the compound Cc1ccc(C(=O)Nc2cccc(C(C)C)c2)cc1/C=C/n1cnc2c(NC3CC3)ncnc21 and give its measured IC50.
8.32

Consider the compound Cc1ccc(C(=O)Nc2ccc(Cl)c(C(F)(F)F)c2)cc1/C=C/n1cnc2c(NC3CC3)ncnc21 and give its measured IC50.
2.41

Consider the compound Cc1ccc(NC(=O)c2cccc(C(F)(F)F)c2)cc1/C=C/n1cnc2c(Nc3ccccn3)ncnc21 and give its measured IC50.
6.26

Consider the compound Cc1ccc(NC(=O)c2cccc(C(F)(F)F)c2)cc1/C=C/n1cnc2c(Nc3ccc(P(C)(C)=O)cc3)ncnc21 and give its measured IC50.
7.6

Consider the compound Cc1ccc(C(=O)Nc2cc(N3CCOCC3)cc(C(F)(F)F)c2)cc1/C=C/n1cnc2c(NC3CC3)ncnc21 and give its measured IC50.
2.52

Consider the compound Cc1ccc(C(=O)Nc2cc(C(F)(F)F)ccn2)cc1/C=C/n1cnc2c(NC3CC3)ncnc21 and give its measured IC50.
4.89

Consider the compound CNc1ncnc2c1ncn2CCc1cc(NC(=O)c2cccc(C(F)(F)F)c2)ccc1C and give its measured IC50.
9.68

Consider the compound Cc1ccc(C(=O)Nc2cc(N3CCN(C)CC3)cc(C(F)(F)F)c2)cc1/C=C/n1cnc2c(NC3CC3)ncnc21 and give its measured IC50.
0.543

====

- test summary: Oral bioavailability in mouse at 10 mg/kg
- Format: ADME, organism-based
- measurement parameters: in vivo
recorded metric: bioavailability (%)
Report as a plain number; the unit % is understood.

Consider the molecule Cc1ccc(C(=O)Nc2cc(C(F)(F)F)ccn2)cc1/C=C/n1cnc2c(NC3CC3)ncnc21 and give its measured bioavailability.
100

====

- test summary: Half life in CD rat at 5 mg/kg, iv
- Type: ADME, organism-based
- Design: dose 5 mg/kg, route intravenous
- measurement parameters: in vivo
Each record's half-life is compared with b0 (below 3 h), b1 (3 h to below 6 h), b2 (6 h or more) to give its class.

Determine which band this compound sits in: Cc1ccc(C(=O)Nc2cc(C(F)(F)F)ccn2)cc1/C=C/n1cnc2c(NC3CC3)ncnc21
b1

Determine which band this compound sits in: Cc1ccc(C(=O)Nc2cc(C(C)(C)C)on2)cc1/C=C/n1cnc2c(NC3CC3)ncnc21
b1

Determine which band this compound sits in: Cc1ccc(NC(=O)c2cccc(C(F)(F)F)c2)cc1/C=C/n1cnc2c(Nc3ccncc3)ncnc21
b2

Determine which band this compound sits in: Cc1ccc(NC(=O)c2cccc(C(F)(F)F)c2)cc1/C=C/n1cnc2c(NC3CC3)ncnc21
b1

Determine which band this compound sits in: Cc1ccc(NC(=O)c2cccc(C(F)(F)F)c2)cc1/C=C/n1cnc2c(Nc3ccc(P(C)(C)=O)cc3)ncnc21
b1

Determine which band this compound sits in: Cc1cn(-c2cc(NC(=O)c3ccc(C)c(/C=C/n4cnc5c(NC6CC6)ncnc54)c3)cc(C(F)(F)F)c2)cn1
b2

Determine which band this compound sits in: Cc1ccc(C(=O)Nc2cccc(C(C)(C)C)c2)cc1/C=C/n1cnc2c(NC3CC3)ncnc21
b0

Determine which band this compound sits in: Cc1ccc(NC(=O)c2cccc(C(F)(F)F)c2)cc1/C=C/n1cnc2c(Nc3cccnc3)ncnc21
b0

====

- test summary: AUC (0 to 24 hrs) in CD rat at 15 mg/kg, po
- Type: ADME, organism-based
- Design: time < 24 hr, dose 15 mg/kg, route oral
- measurement parameters: plasma
Provide the recorded log10 of AUC(0-t) at 24 h for the entries that follow.
Hello, just confirming the data are log10 of AUC(0-t) at 24 h with units of ng·h/mL.

Consider the compound Cc1ccc(NC(=O)c2cccc(C(F)(F)F)c2)cc1/C=C/n1cnc2c(NC3CC3)ncnc21 and give its measured log10 of AUC(0-t) at 24 h.
4.51

Consider the compound Cc1ccc(C(=O)Nc2cccc(C(C)(C)C)c2)cc1/C=C/n1cnc2c(NC3CC3)ncnc21 and give its measured log10 of AUC(0-t) at 24 h.
2.47

Consider the compound Cc1ccc(NC(=O)c2cccc(C(F)(F)F)c2)cc1/C=C/n1cnc2c(Nc3ccc(P(C)(C)=O)cc3)ncnc21 and give its measured log10 of AUC(0-t) at 24 h.
2.16

Consider the compound Cc1cn(-c2cc(NC(=O)c3ccc(C)c(/C=C/n4cnc5c(NC6CC6)ncnc54)c3)cc(C(F)(F)F)c2)cn1 and give its measured log10 of AUC(0-t) at 24 h.
4.24

Consider the compound Cc1ccc(NC(=O)c2cccc(C(F)(F)F)c2)cc1/C=C/n1cnc2c(Nc3cccnc3)ncnc21 and give its measured log10 of AUC(0-t) at 24 h.
3.52

Consider the compound Cc1ccc(C(=O)Nc2cc(C(F)(F)F)ccn2)cc1/C=C/n1cnc2c(NC3CC3)ncnc21 and give its measured log10 of AUC(0-t) at 24 h.
5.63

Consider the compound Cc1ccc(C(=O)Nc2cc(C(C)(C)C)on2)cc1/C=C/n1cnc2c(NC3CC3)ncnc21 and give its measured log10 of AUC(0-t) at 24 h.
3.88
